test summary: Microsomal stability study
Assay type: in vitro ADME
condition summary: human liver microsomes in buffer, 20 min

>  <compound>
COc1ccc(S(=O)(=O)Nc2cnc(N(CC(=O)O)S(=O)(=O)c3ccc(OC)cc3)c3ccccc23)cc1

>  <metabolic stability>
degraded substantially

$$$$
>  <compound>
[2H]C([2H])([2H])N(c1cnc(N(CC(=O)O)S(=O)(=O)c2ccc(OC)cc2)c2ccccc12)S(=O)(=O)c1ccc(OC)cc1

>  <metabolic stability>
degraded substantially

$$$$
>  <compound>
COc1ccc(S(=O)(=O)N(C)c2cnc(N(CC(=O)O)S(=O)(=O)c3ccc(OC)cc3)c3ccccc23)cc1

>  <metabolic stability>
degraded substantially

$$$$
